Recorded Purity, Control values for a group of compounds are listed next.
test: Solid state (thermolytic) stability of TBR-760 salt forms, open container, UPLC peak purity and appearance; assay type: physicochemical; conditions: UPLC peak purity, control, stored at -20° C.
Where a name gives a salt, the structure may show the parent alone.
Respond with the number and no other words.

Take a look at these entries with their results.
>>> result_value("CCCN1C[C@H](CSCC(=O)NCCCC[C@@H](NC(=O)CSC[C@@H]2C[C@@H]3c4cccc5[nH]cc(c45)C[C@H]3N(CCC)C2)C(=O)N[C@H]2CSSC[C@@H](C(=O)N[C@H](C(N)=O)[C@@H](C)O)NC(=O)[C@H](CC)NC(=O)[C@H](CCCCN)NC(=O)[C@@H](Cc3c[nH]c4ccccc34)NC(=O)[C@H](Cc3ccc(O)cc3)NC2=O)C[C@@H]2c3cccc4[nH]cc(c34)C[C@H]21 [TBR-760 sulfate]")
98.04
>>> result_value("CCCN1C[C@H](CSCC(=O)NCCCC[C@@H](NC(=O)CSC[C@@H]2C[C@@H]3c4cccc5[nH]cc(c45)C[C@H]3N(CCC)C2)C(=O)N[C@H]2CSSC[C@@H](C(=O)N[C@H](C(N)=O)[C@@H](C)O)NC(=O)[C@H](CC)NC(=O)[C@H](CCCCN)NC(=O)[C@@H](Cc3c[nH]c4ccccc34)NC(=O)[C@H](Cc3ccc(O)cc3)NC2=O)C[C@@H]2c3cccc4[nH]cc(c34)C[C@H]21 [TBR-760 acetate]")
98.35
>>> result_value("CCCN1C[C@H](CSCC(=O)NCCCC[C@@H](NC(=O)CSC[C@@H]2C[C@@H]3c4cccc5[nH]cc(c45)C[C@H]3N(CCC)C2)C(=O)N[C@H]2CSSC[C@@H](C(=O)N[C@H](C(N)=O)[C@@H](C)O)NC(=O)[C@H](CC)NC(=O)[C@H](CCCCN)NC(=O)[C@@H](Cc3c[nH]c4ccccc34)NC(=O)[C@H](Cc3ccc(O)cc3)NC2=O)C[C@@H]2c3cccc4[nH]cc(c34)C[C@H]21 [TBR-760 mesylate]")
98.39

Value lookup for Purity, Control; key = CCCN1C[C@H](CSCC(=O)NCCCC[C@@H](NC(=O)CSC[C@@H]2C[C@@H]3c4cccc5[nH]cc(c45)C[C@H]3N(CCC)C2)C(=O)N[C@H]2CSSC[C@@H](C(=O)N[C@H](C(N)=O)[C@@H](C)O)NC(=O)[C@H](CC)NC(=O)[C@H](CCCCN)NC(=O)[C@@H](Cc3c[nH]c4ccccc34)NC(=O)[C@H](Cc3ccc(O)cc3)NC2=O)C[C@@H]2c3cccc4[nH]cc(c34)C[C@H]21 [TBR-760 tosylate]
98.39
